Reported apparent KD of MS2 coat protein values for the following sequences.
Test system: MS2 coat protein
Experiment: apparent KD of MS2 coat protein; designed switch direction (-1 OFF switch, 1 ON switch): -1; higher = weaker reporter binding
Conditions: Eterna round: R95; input ligand: FMN 200 uM
Field format: number, assumed nM, no unit text.

Quick check: apparent KD of MS2 coat protein on MS2 coat protein, item GGAAAGCAAGGAUAUACAAGGAGAAGGAGGAAAGUAAAAGGACAUGAGGAUCACCCAUGUAGAAGGUGCGAGAG [JR_Exclu2_Sub039] (puzzle: Exclusion 2) ?
31.9

Quick check: apparent KD of MS2 coat protein on MS2 coat protein, item AAAUUAAGUGUGAGGAUAUGCUGGUCCUUGGAUCAGCAGAAGGCACAUGAGGAUCACCCAUGUAAUAUAUUUAA [Mat - Exclusion 4 - JL Mod - D49] (puzzle: Brourd's mod of Exclusion 4) ?
439

Quick check: apparent KD of MS2 coat protein on MS2 coat protein, item GUGUAGCGAGGAUAUACAUGAGGAUCACCCAUGUGAAUAAGAUAGAAUAAGAUAAAGUGUAGAAGGUGUAGUGU [Excluse me!!! 11 - Jieux - Exclusion 3] (puzzle: Exclusion 3) ?
46.7

Quick check: apparent KD of MS2 coat protein on MS2 coat protein, item CAUGAUCUUCGGAUCAUGUACAUGAGGAUCACCCAUGUUACGAGUUGAUCCUCAUACAAGCUUUUUGCUCGUCUUAU [Sensor v3 - Turn-off variant 1 - 26] (puzzle: Sensor v3, turn-off variant 1) ?
22.2

Quick check: apparent KD of MS2 coat protein on MS2 coat protein, item CCUCGUAACUAGGAUAUCCGAAAUAAGCGAGGAGGAGAAGGAGUUACAUGAGGAUCACCCAUGUGAUAUAAAGA [Orisxe] (puzzle: Exclusion 6) ?
46.9

* * *

Tested on: K4 kissing-loop RNA reporter
Test: apparent KD of K4 kissing-loop reporter; higher = weaker reporter binding
Details: Eterna round: R107; input ligand: theophylline 20 uM
recorded_endpoint: apparent KD of K4 kissing-loop reporter (nM)
Field format: number, assumed nM, no unit text.

UGCAUCGUUGGCAGGCGCACCACACAGUGUAAGGAUAUGAUGUCGUUCAGAAGGUACGCUUGACCGAGUGAUGUUCGGGAGUGCC [theeternabot_sameState_KL_FMN_A_9] | 245
GGUGAUGAGCACGAUACCAGCCUCGGAGCCAGUGAUGUUGGCCCAAUUUAAAAUAAGAUAGGCCCUUGGCAGCGUGACGAUGGCU [Rainle] | 466

Proceed to the following item.
I have this sequence here, GUUUGGCGGACGGCCGCCACUCGGACGAGUCACAGUGAUGUUGUGGUUUGCCAGUCGACUUCAUCGAGGACCGGGUUUGUCGGGC [Exclusion Tryptophan B GF 20] , and I need its recorded apparent KD of K4 kissing-loop reporter.
314

* * *

Tested on: MS2 coat protein
Test: apparent KD of MS2 coat protein; designed switch direction (-1 OFF switch, 1 ON switch): -1; higher = weaker reporter binding
Conditions: input ligand: none
Please note: Y applies when apparent KD of MS2 coat protein is 100 nM or greater, and N applies otherwise.

Before answering, review these 4 worked examples.
UGUUGUCGCGUAGGAUAUGAGGAUCACCCAUAGAAGGAUAUCGAAAGAGAAGGUCUGAGGAUUACCCAGAAGGACGGGACAACU [pwkr exNG2 2xF5 2xFMN.14] (Eterna round: R96, puzzle: Exclusion NG 2) | Y
GUGCACGUAGGAUAUUAGAAGGAGAACAUGAGGAUCACCCAUGUUAUCCAUCACCUCCGCUAAGAAGGAUGGCCAC [EX5 C.6] (Eterna round: R97, puzzle: Exclusion 5) | N
AGGAUACAUGAGGAUCACCCAUGUGAGGAUAUACGAUAGCUCAGGAAGAGAUUAGUAUGUAGAAGGUGCGGGUG [Eternabot (L1) Solution 49] (Eterna round: R97, puzzle: Exclusion 1) | Y
UAUUACCCAAGCAGGUCCCACAUGAGGAUCACCCAUGUGCUCGUCUUAUAACGAUCUGUGGGAAAACCUACGGAUCG [Elimod 20 - Jieux - Sensor, turn-off variant 1] (Eterna round: R97, puzzle: Sensor, turn-off variant 1) | N

Next:
Hi, just wondering whether AGAGUGCUGCGAGGAUAUACAUGAGGAUCACCCAUGUUUUCGUGUGAGGCUUUGCCUCACACGAAGUAGAAGGCGCAGUACUCU [Mat - Exclusion NG 2 - Mod of JL - D31] (Eterna round: R96, puzzle: Exclusion NG 2) shows apparent KD of MS2 coat protein of 100 nM or higher.
N

* * *

Tested on: K4 kissing-loop RNA reporter;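 note: bound reporter read as fluorescence of individual clusters on recovered sequencing chips by microscopy, with normalized cluster intensities fitted with a binding model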
Experiment: apparent KD of K4 kissing-loop reporter; higher = weaker reporter binding
Conditions: Eterna round: R107; input ligand: theophylline 20 uM
recorded_endpoint: apparent KD of K4 kissing-loop reporter

Consider the worked cases shown below.
AUGCGCGCGGCGGCCGCCACUCGCAUGAGAGUGAUGUUCUCACCGUGACCGUAAGGUCGCGGUGUGAGGACCGGGCCGGGCUGCG [#2 Same State - Tryptophan B Attempt #23 (HarryS)] | 281 nM
UCGAGUUGACGAAGAGUCAACUCGUGUGAUACCAGUGACGAAAGUCACCCUUGGCAGCACUAUGCUAGUGAUGUUGGUAUUUAAG [#08 K4 Theophylline A Same State] | 105 nM

Quick check: apparent KD of K4 kissing-loop reporter on K4 kissing-loop RNA reporter, item UGACUGGAUGGAAGGAGCGCUAAACUCCUAGUGAUGUUAGGGACACGAGACAAAGUCUUGAGGCAGGUAGGUCGCCAUCUAGUCU [FiskerMod 8 - Jieux - Same State - Arginine B] ?
250 nM

* * *

Tested on: MS2 coat protein
Assay: apparent KD of MS2 coat protein; designed switch direction (-1 OFF switch, 1 ON switch): -1; higher = weaker reporter binding
Conditions: input ligand: none
recorded_endpoint: apparent KD of MS2 coat protein (nM)
Field format: number, assumed nM, no unit text.

CAGUACUGAGGAUAUACAUGAGGAUCACCCAUGUGGAGAGGAAAAGGAAGAAAAGAAGGUAGAAGGCGGUGCUG [JR_Ex3_Sub042] (Eterna round: R97, puzzle: Exclusion 3) | 40.8
AAAAAGGUAGGAUAUCCACUUUAAAACAUGAGGAUCACCCAUGUAAAACCACAUGAAAAAGGAGAAGGACCAAAAA [AK-MS2ROC-r4-exclusion5-2] (Eterna round: R97, puzzle: Exclusion 5) | 26
AGUAAGCUAGGAUAUGCUUUGGGAAAGCAAUCCUUCGAUAAACUUGAGGAUCACCCAAGUAGAAGGAGCUUACU [jl-ex2.4.50 ViennaUCT mod] (Eterna round: R97, puzzle: Exclusion 2) | 25.4
UGAUCUAGCGGAGGAUAUACAUGAGGAUCACCCAUGUAUAGUCCAUGUGGUGACACGUGGAACAUGUAGAAGGCCGCUAGAUCU [JL ENG2 3.83] (Eterna round: R96, puzzle: Exclusion NG 2) | 23.1
GUUAACGUAGGAUAUUAGUACAUGCACAUGAGGAUCACCCAUGUUUAGUGGGUCUAGGAAUAAGAAGGGCGAUGAA [EX5 #22] (Eterna round: R97, puzzle: Exclusion 5) | 567

I have this sequence here, UAUAUAUAGUAAGGAUAUGUAUAUAUUUUAUAGACAGAAGGUACUGACAUGAGGAUCACCCAUGUUUUAGUGUGGGCAUGUAGA [JMF's solution 72] (Eterna round: R96, puzzle: Exclusion NG 1) , and I need its recorded apparent KD of MS2 coat protein.
50.5

I have this sequence here, ACCGUGUAAGGAUAUCGAGGCCGAGGAAGUCGCAUGGCCUGUGAGAAGGUACAUGAGGAUCACCCAUGUCCCAU [Eternabot (L2) Solution 6] (Eterna round: R97, puzzle: Exclusion 4) , and I need its recorded apparent KD of MS2 coat protein.
27.6

I have this sequence here, ACAUGUAAUGCAGGAUAUGGGACACAUGAGGAUCACCCAUGUUACCAUAUGUAAUGCUAAGAGUCUCAGAAGGGUAUGUACAUG [Ex NG2 #47] (Eterna round: R96, puzzle: Exclusion NG 2) , and I need its recorded apparent KD of MS2 coat protein.
15.6

I have this sequence here, AAAACGUCAGGAUAUCCAAUAUAUGACAUGAGGAUCACCCAUGUUUCCACUCGUACCUCCGGAGAAGGGACUUAUA [Ex5 #83] (Eterna round: R97, puzzle: Exclusion 5) , and I need its recorded apparent KD of MS2 coat protein.
46.2

I have this sequence here, CUUUUUGUCGAGGAUAUGCACCAGCUCACUGACGCAGAAGGCGACACAUGAGGAUCACCCAUGUCAGUUCGCGU [salish99_ex6_r004_433] (Eterna round: R97, puzzle: Exclusion 6) , and I need its recorded apparent KD of MS2 coat protein.
20

* * *

Test system: MS2 coat protein
Experiment: apparent KD of MS2 coat protein; designed switch direction (-1 OFF switch, 1 ON switch): 1; higher = weaker reporter binding
Details: Eterna round: R95; input ligand: none
Please note: criterion met applies when apparent KD of MS2 coat protein is 0.07 µM or greater, and criterion not met applies otherwise.

Hi, just wondering whether CAAGUACAUGAGGAUCACCCAUGUAGAAGAGAUGCAGGAUAUGUGGGAAAAGGGAGUGUAACAGAAGGGCAAGGAG [JR_SS!_Sub018] (puzzle: Same State 1) shows apparent KD of MS2 coat protein of 0.07 µM or higher.
criterion not met

Hi, just wondering whether UGUCCAGCCUGAGCUGGACAAAAGCAUGUACAUGAGGAUCACCCAUGUUCAUGUACAAGCUUUUUGCUCGUCUUAUA [salish99_208a_r3_044] (puzzle: Sensor for hsa-mir-208a) shows apparent KD of MS2 coat protein of 0.07 µM or higher.
criterion met

Hi, just wondering whether GCGCAGCUGAGUGAGGAUAUCGGUGGUAAAACAUGAGGAUCACCCAUGUCCGAAGCUCGGACUUCCGAGAAGGCACCCGGCUGCA [Inisusbeor] (puzzle: Same State 2) shows apparent KD of MS2 coat protein of 0.07 µM or higher.
criterion met

Hi, just wondering whether GUAGAAUAACUAGAGGAUAUCCGAGUGGUAACAUGAGGAUCACCCAUGUGAUGAAAGGAACAUGAGGAGAAGGCUAGAAUGAAUG [Mat - Same State 2 - Mod of JL - D84] (puzzle: Same State 2) shows apparent KD of MS2 coat protein of 0.07 µM or higher.
criterion met

Hi, just wondering whether AGUCCAGCCUGAGCUGGACAAAAGCAUGUACAUGAGGAUCACCCAUGUUCAUGUACAAGCUUUUUGCUCGUCUUCAA [salish99_208a_r3_097x] (puzzle: Sensor for hsa-mir-208a) shows apparent KD of MS2 coat protein of 0.07 µM or higher.
criterion met

Hi, just wondering whether GAGAGACAUGAGGAUCACCCAUGUAGGAGAAGACAAGGAUAUGUAGGAGAAGGAGAAGGAACAGAAGGUGUGGGAG [JR_SS1_Sub051] (puzzle: Same State 1) shows apparent KD of MS2 coat protein of 0.07 µM or higher.
criterion met

Hi, just wondering whether UCUUGGUUUUUGCUCGUUUUUUGUGUUGAACAUGAGGAUCACCCAUGUAUUGUACAGUCCGGUUUAGUGAUGGUCCG [JMF 58] (puzzle: Sensor for hsa-mir-208a) shows apparent KD of MS2 coat protein of 0.07 µM or higher.
criterion not met
